System: HT29 colon
Assay: NCI-60 one-dose screen, 48 h
Conditions: 10 µM unless noted
Compounds without any hit were thinned out: in the full panel of roughly 83,000, 20% have a hit. Calls of active or inactive are those of the source. Rule for the calls: active = growth percent below 10; inactive = the rest.
Outcome codes: true for active, false for inactive

[
  {
    "smiles": "COc1cc(/C=N/n2cnc3oc(-c4ccccc4)cc3c2=N)cc(CN2CCCCC2)c1O",
    "class": "true"
  },
  {
    "smiles": "CN1CCN(c2ccc(C(=O)/C=C/c3ccc(Cl)c(C(F)(F)F)c3)cc2)CC1",
    "class": "false"
  },
  {
    "smiles": "COc1ccc2c(C3=C(c4c[nH]c5ccccc45)C(=O)N(O)C3=O)coc2c1",
    "class": "false"
  },
  {
    "smiles": "Oc1ccc(CSc2nnc(-c3ccncc3)o2)c2cccnc12",
    "class": "false"
  },
  {
    "smiles": "Cc1cc(-c2ccc3nc(N)sc3c2)nc2ccc3[nH]ncc3c12",
    "class": "false"
  }
]

====

Reported growth values for a set of compounds
Tested on: OVCAR-3 ovarian
Assay: NCI-60 one-dose screen, 48 h (100 = growth as untreated, 0 = no growth, -100 = all killed)
Settings: 10 µM unless noted
About 83,000 compounds went through this panel and 20% of them were active in at least one assay; those are over-represented in the sample as a whole.
measurementKind: growth (%)

[
  {
    "compound": "CCC(CC)N1C(=O)/C(=c2\\sc3n(c2=O)C2C(NN=3)N(CC)C(=O)N2CC)c2ccccc21 (stereo unspecified)",
    "observedValue": 7.62
  },
  {
    "compound": "O=C(NCCCNc1cc(-c2cn(-c3ccccc3)nc2-c2cccc(O)c2)ccn1)Nc1ccc(F)cc1",
    "observedValue": 28.4
  },
  {
    "compound": "COCCC[C@H]1O[C@@](O)([C@H](C)[C@@H]2CC(OC)C(O)/C=C(C)/C=C(C)/C=C(\\C)C(OC3O[C@@H](C)[C@H](O)C(O)[C@@H]3O)C(C)/C=C(C)/C=C(OC)/C=C(\\C)C(=O)O2)C(OC)C(O)[C@]1(C)O[C@H]1C[C@@H](O)[C@H](O[C@H]2C[C@](C)(O)[C@H](O)C(C)O2)C(C)O1 (stereo partly specified)",
    "observedValue": 74.9
  },
  {
    "compound": "CS(=O)(=O)c1ccc(-c2nn(-c3ccccc3)cc2/C=C/C(=O)c2ccc(Br)cc2)cc1",
    "observedValue": 70.3
  },
  {
    "compound": "Oc1ccc(CSc2nnc(-c3ccncc3)n2-c2ccccc2)c2cccnc12",
    "observedValue": 5.81
  },
  {
    "compound": "COc1ccc(N2C(=O)c3cc(OC)c(OC)cc3NC2SCc2ccccc2)cc1 (stereo unspecified)",
    "observedValue": 125
  },
  {
    "compound": "COc1ccc(-c2cc(-c3ccc(Cl)cc3)nc3nc(N)nn23)cc1",
    "observedValue": 110
  },
  {
    "compound": "N#Cc1c(NC(=O)c2ccc(F)c(Cl)c2)sc2c1CCC(=O)C2",
    "observedValue": -47.3
  },
  {
    "compound": "N/C(=N\\c1nc2c(Cl)cccc2s1)C(Cl)(Cl)Cl",
    "observedValue": 57.9
  },
  {
    "compound": "COc1ccc(NS(=O)(=O)c2ccc(-c3cnc(C4CC4)o3)cc2)cc1Cl",
    "observedValue": 15.5
  },
  {
    "compound": "Cc1ccc(NC(=O)c2ccc(CN3CCN(C)CC3)c(C(F)(F)F)c2)cc1Oc1ccc(-c2[nH]nc3ncnc(N)c23)cc1",
    "observedValue": 113
  },
  {
    "compound": "O=C1[C@@H]2Cc3c([nH]c4ccccc34)[C@H](c3c(Cl)cccc3Cl)N2C(=O)CN1C1CCN(Cc2ccccc2)CC1",
    "observedValue": 81.4
  },
  {
    "compound": "C=C1C(=O)O[C@@H]2C[C@@H](C)[C@H](OC)CC(=O)[C@](C)(OC(C)=O)C[C@H](OC(=O)/C(C)=C\\C)[C@@H]12",
    "observedValue": 21.4
  },
  {
    "compound": "CN1CCN(c2ccc3c(C(N)=O)c(NC(=O)c4ccc(C(C)(C)C)cc4)sc3c2)CC1",
    "observedValue": 79.3
  },
  {
    "compound": "COC[C@]12CC[C@@H](C)[C@H](C)[C@H]1C1=CC[C@@H]3[C@@]4(C)CCCNC(C)(C)[C@@H]4CC[C@@]3(C)[C@]1(C)CC2",
    "observedValue": 41.4
  },
  {
    "compound": "C/C(=N/Nc1nc(N/N=C(/C)c2ccc([N+](=O)[O-])cc2)nc(N2CCOCC2)n1)c1ccc([N+](=O)[O-])cc1",
    "observedValue": 88.4
  }
]

====

Tested on: KM12 colon
Test: NCI-60 one-dose screen, 48 h (100 = growth as untreated, 0 = no growth, -100 = all killed)
Details: 10 µM unless noted
The panel holds about 83,000 compounds, 20% with a hit somewhere; the sample as a whole holds those more often.

[
  {
    "compound": "N#Cc1c(-c2ccccc2)cc(-c2c[nH]c3ccccc23)nc1-c1c[nH]c2ccccc12",
    "growth [%]": 103
  },
  {
    "compound": "C=CCn1c(SCC(=O)Nc2cccc(C(=O)/C=C/c3ccccc3)c2)nc2ccccc2c1=O",
    "growth [%]": 57.5
  },
  {
    "compound": "O=c1c2ccccc2nc(COc2ccccc2)n1/N=C/C=C/c1ccccc1",
    "growth [%]": 111
  },
  {
    "compound": "CC1COc2c(N3CCN(C)CC3)c(F)cc3c(=O)c(C(=O)N/N=C/c4cc[nH]c4)cn1c23 (centres undefined)",
    "growth [%]": 46.4
  },
  {
    "compound": "O=C(O)CNS(=O)(=O)c1ccc(Oc2ccc(S(=O)(=O)NCC(=O)O)cc2)cc1",
    "growth [%]": 98.4
  },
  {
    "compound": "COc1cc2c3c(n(CCCNC4CCC4)c(=O)c2cc1OC)-c1cc2c(cc1C3=O)OCO2",
    "growth [%]": 38.7
  },
  {
    "compound": "O=C1c2c(c3c4cccnc4[nH]c3c3ccc4ccccc4c23)C(=O)N1CCN1CCCCC1",
    "growth [%]": 99.6
  },
  {
    "compound": "COc1ccc(S(=O)(=O)NCCCNc2nccc(-n3cnc4ccccc43)n2)cc1",
    "growth [%]": 84.1
  },
  {
    "compound": "COc1ccc(/C=C/C(=O)c2nnn(-c3ccc(Br)cc3)c2C)cc1OC",
    "growth [%]": 66.7
  }
]

====

System: SNB-19 CNS
Test: NCI-60 one-dose screen, 48 h (100 = growth as untreated, 0 = no growth, -100 = all killed)
Conditions: 10 µM unless noted
Compounds without any hit were thinned out: in the full panel of roughly 83,000, 20% have a hit.
Friendly reminder: growth below 90% is Met, at or above is Not met.

[
  {
    "molecule": "O=C(/C=C1\\C=CN(CCCCCCF)c2ccccc21)n1ccc2ccccc21",
    "class": "Not met"
  },
  {
    "molecule": "COc1ccc(Cn2cc3c(c2-c2ccccc2)CCCc2cnoc2-3)cc1[N+](=O)[O-]",
    "class": "Met"
  },
  {
    "molecule": "NC(=O)C(=Cc1ccc(Cl)cc1)C(N)=O",
    "class": "Met"
  },
  {
    "molecule": "CCN1C(=O)N(CC)C2SC(N/N=C/C=C/c3ccccc3OC)=NC21 (configuration not stated)",
    "class": "Met"
  },
  {
    "molecule": "CCOC(=O)c1c(NC(=O)c2ccc(C(C)(C)C)cc2)sc2cc(OCCN3CCCCC3)ccc12",
    "class": "Met"
  },
  {
    "molecule": "COc1cc(/C=N/n2cnc3oc(-c4ccccc4)cc3c2=N)cc(CN2CCCC2)c1O",
    "class": "Met"
  },
  {
    "molecule": "COc1ccc(-c2nc3cc(Cl)c(Cl)cc3n2CC(=O)N=Nc2c(O)[nH]c3ccc(Br)cc23)cc1",
    "class": "Met"
  },
  {
    "molecule": "CS(=O)(=O)c1nccc(-c2c(-c3ccc(F)c(OCCc4ccccc4)c3)nc3sccn23)n1",
    "class": "Met"
  },
  {
    "molecule": "COc1ccc2c(ccn2C(=O)N2c3ccccc3Sc3ccccc32)c1",
    "class": "Met"
  },
  {
    "molecule": "ClC(Cl)c1nc(-c2cccs2)n2nc(-c3ccccc3)cc2n1",
    "class": "Met"
  },
  {
    "molecule": "O=C(NNc1nc2cc(F)cc(F)c2n2cccc12)c1ccncn1",
    "class": "Met"
  },
  {
    "molecule": "COc1c([C@@H](CC(C)C)OC(C)=O)ccc2c1C(=O)OCc1cc(C)cc(O)c1O2",
    "class": "Met"
  },
  {
    "molecule": "c1ccc(-c2n(Cc3ccc4ccccc4c3)c3c4ccccc4c4ccccc4c3[n+]2Cc2ccc3ccccc3c2)cc1",
    "class": "Met"
  },
  {
    "molecule": "COc1cc2cc(Oc3ccc(NC(=O)c4cccc(C(F)(F)F)c4)cc3)c(C)nc2cc1OCCN(C)C",
    "class": "Not met"
  },
  {
    "molecule": "O=C1C[C@@H](c2ccccc2)Oc2c(Cc3ccccc3O)c(O)c(Cc3cc(Cc4cc(Cc5ccccc5O)ccc4O)ccc3O)c(O)c21",
    "class": "Not met"
  },
  {
    "molecule": "Cn1cc(-c2nn3c(=O)cc(-c4ccccc4)nc3s2)c2cc(F)ccc21",
    "class": "Met"
  },
  {
    "molecule": "CC(=O)Nc1ccc(NC(=O)Nc2cccc(-c3nc(-c4ccc(NC(=O)c5cccs5)cc4Cl)no3)c2)cc1C(F)(F)F",
    "class": "Met"
  },
  {
    "molecule": "COc1ccc(NS(=O)(=O)c2ccc(-c3cnc(C4CC4)o3)cc2)cc1Cl",
    "class": "Met"
  },
  {
    "molecule": "O=C(NNc1nc2cc(F)c(F)cc2n2cccc12)c1ncccn1",
    "class": "Met"
  },
  {
    "molecule": "COc1ccc(-c2nnc(/N=C3/C(=O)Nc4ccc(Br)cc43)o2)cc1",
    "class": "Not met"
  },
  {
    "molecule": "C[C@@H]1C[C@H]2C(=O)OCC(NC(=O)[C@H](Cc3cc(F)cc(F)c3)NC(=O)Nc3ccc(Cl)cc3F)C(=O)N3CCC[C@H]3C(=O)N3CCCC[C@H]3C(=O)N[C@@H](C)C(=O)N2C1 (some centres not stated)",
    "class": "Met"
  },
  {
    "molecule": "N#C/C(=C\\c1ccc(-c2ccc(F)cc2)o1)C(=O)Nc1ncc(Cc2ccc(Cl)cc2Cl)s1",
    "class": "Met"
  },
  {
    "molecule": "Cn1nc(Nc2ccccc2)c(C(=O)NN)c1N",
    "class": "Not met"
  },
  {
    "molecule": "Cc1cc(O)c2c(c1)C(=O)C(c1c(C)cc3c(c1O)C(=O)C=CC3=O)=CC2=O",
    "class": "Not met"
  },
  {
    "molecule": "O=C(Nc1ccc(F)cc1)c1cc(-c2ccc(F)cc2F)ccc1O",
    "class": "Met"
  },
  {
    "molecule": "COC[C@]12CC[C@@H](C)[C@H](C)[C@H]1C1=CC[C@@H]3[C@@]4(C)CCCNC(C)(C)[C@@H]4CC[C@@]3(C)[C@]1(C)CC2",
    "class": "Met"
  },
  {
    "molecule": "O=c1c2c(O)cccc2oc2c3c(cc(O)c12)O[C@H]1OC=C[C@@H]31",
    "class": "Not met"
  },
  {
    "molecule": "CN1CCN(c2ccc(C(=O)/C=C/c3ccc(Cl)c(C(F)(F)F)c3)cc2)CC1",
    "class": "Met"
  },
  {
    "molecule": "O=c1[nH]c(CNc2ccc(NCc3c(-c4ccccc4)no[n+]3[O-])cc2)nc2c1cnn2-c1ccccc1",
    "class": "Not met"
  },
  {
    "molecule": "Oc1ccc(CSc2nnc(-c3ccc(Br)cc3)o2)c2cccnc12",
    "class": "Met"
  },
  {
    "molecule": "O=C(NNc1nc2cc(F)c(F)cc2n2cccc12)c1ccncn1",
    "class": "Met"
  }
]
